src = paper PMC7831015

# TEST_DETAILS: Hemolysis assay
# Type: cell-based, human
# EXPERIMENTAL_PARAMETERS: human, washed human red blood cells (RBC suspension), pH 7.2; 80 µg·mL^−1; 24 h, 37 °C; free chrysin solution in DMSO (5%); read-out: Percentage of Hemolysis
REPORTED_ENDPOINT: hemolysis at 24 h, 80 µg·mL^−1 (%)

>>> reported("O=c1cc(-c2ccccc2)oc2cc(O)cc(O)c12 [chrysin, 5,7-dihydroxyflavone]")
3.5

###

# TEST_DETAILS: Hemolysis assay
# Format: cell-based, human
# EXPERIMENTAL_PARAMETERS: human, washed human red blood cells (RBC suspension), pH 7.2; 500 µg·mL^−1; 24 h, 37 °C; free chrysin solution in DMSO (5%); read-out: Percentage of Hemolysis
REPORTED_ENDPOINT: hemolysis at 24 h, 500 µg·mL^−1 (%)

>>> reported("O=c1cc(-c2ccccc2)oc2cc(O)cc(O)c12 [chrysin, 5,7-dihydroxyflavone]")
8.2
